Target: Steroidogenic factor 1 (Homo sapiens)
Test: SF1 (NR5A1) inverse agonists, counter-screen for LRH-1 inverse agonist project, cell-based, luminescence, high throughput (AID 651614);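 further: cells cotransfected with StAR promoter reporter and SF1 expression vector; 0% = vehicle on cells with receptor and 100% = vehicle on cells lacking receptor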
Conditions: cell-based SF1 luciferase reporter, at 3.6 µM, active compounds read high
Measured attribute: inhibition (%)

1. CC12CCC3C(CCC4(O)CC(O)CCC34C=O)C1(O)CCC2C1=CC(=O)OC1 (stereo unspecified) :: 96.2
2. CC1=CC2OC3CC4OC(=O)C=CC=CC(C(C)O)OCC(O)C5(C)OC5C(=O)OCC2(CC1O)C4(C)C31CO1 (stereo unspecified) :: 96.5
3. CC(C)c1oc(=O)cc2c1[C@@H](O)[C@H]1OC(=O)[C@@]3(C)CC[C@@H](O)[C@@]2(C)C13 (stereo partly specified) :: 72.3
4. C[C@]12CC[C@H]3[C@@H](CC[C@]4(O)C[C@@H](O)CC[C@]34C=O)[C@@]1(O)CC[C@@H]2C1=CC(=O)OC1 :: 98.7
5. CCN1CCN(c2cc(N3CCCC3)c([N+](=O)[O-])cc2F)CC1 :: 46.4
6. CC(=O)O[C@H]1C(=O)[C@@]2(C)C([C@H](OC(=O)c3ccccc3)[C@]3(O)C[C@H](OC(=O)[C@H](O)[C@@H](NC(=O)Cc4ccccc4)c4ccccc4)C(C)=C1C3(C)C)[C@]1(OC(C)=O)CO[C@@H]1C[C@@H]2O (stereo partly specified) :: 54.9

All figures here come from PubChem BioAssay.
